TGT: PDGF-Ra (Homo sapiens, UniProt P16234)
Construct: host or cells: G-292 human osteosarcoma cells
Sequence (P16234 24-1089): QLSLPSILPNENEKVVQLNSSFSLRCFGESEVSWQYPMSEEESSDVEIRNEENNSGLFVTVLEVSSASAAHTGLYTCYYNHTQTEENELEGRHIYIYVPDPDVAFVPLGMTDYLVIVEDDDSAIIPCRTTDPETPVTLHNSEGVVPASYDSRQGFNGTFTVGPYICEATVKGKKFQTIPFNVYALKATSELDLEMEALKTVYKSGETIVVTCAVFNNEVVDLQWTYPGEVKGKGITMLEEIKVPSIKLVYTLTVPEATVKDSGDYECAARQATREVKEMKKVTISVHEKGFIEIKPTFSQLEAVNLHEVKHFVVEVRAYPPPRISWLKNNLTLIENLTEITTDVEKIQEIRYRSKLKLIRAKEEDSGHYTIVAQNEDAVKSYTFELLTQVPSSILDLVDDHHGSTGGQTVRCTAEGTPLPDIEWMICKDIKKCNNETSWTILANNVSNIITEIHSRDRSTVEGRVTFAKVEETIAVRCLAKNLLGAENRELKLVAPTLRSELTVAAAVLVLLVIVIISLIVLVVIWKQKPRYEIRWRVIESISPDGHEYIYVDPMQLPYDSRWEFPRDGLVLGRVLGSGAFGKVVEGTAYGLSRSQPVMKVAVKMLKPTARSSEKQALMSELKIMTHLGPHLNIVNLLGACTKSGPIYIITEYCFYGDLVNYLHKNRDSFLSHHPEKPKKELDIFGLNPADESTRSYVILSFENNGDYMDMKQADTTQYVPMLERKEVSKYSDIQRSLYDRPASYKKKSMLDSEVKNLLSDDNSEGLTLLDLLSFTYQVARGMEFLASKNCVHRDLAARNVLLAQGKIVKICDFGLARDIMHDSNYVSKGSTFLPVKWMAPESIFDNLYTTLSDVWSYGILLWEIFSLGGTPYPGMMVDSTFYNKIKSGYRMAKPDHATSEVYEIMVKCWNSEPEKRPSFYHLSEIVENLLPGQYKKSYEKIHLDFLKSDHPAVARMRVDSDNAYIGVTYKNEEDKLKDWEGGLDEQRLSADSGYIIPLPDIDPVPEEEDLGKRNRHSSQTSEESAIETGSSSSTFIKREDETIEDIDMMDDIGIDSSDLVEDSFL
EXPERIMENT SUMMARY: Inhibitory activity against PDGF-Ra phosphorylation by PDGF-AA stimulation using G292
Format: cell-based
TEST SETTINGS: G292; figure within parentheses in >100( ); at 100 nM; read-out: PDGF (E) inhibition (%) at 100 nM
RECORDED ENDPOINT: inhibition at 0.1 µM (%)

CCCC(CCN1CCCCC1)OC(=O)Nc1ccc(Oc2ncnc3cc(OC)c(OC)cc23)cc1 (centres unmarked) [Example 448] ... 39
COc1cc2nccc(Oc3ccc(NC(=S)NC(=O)Cc4ccc5ccccc5c4)cc3Cl)c2cc1OC [Example 710] ... 33
COc1cc2ncnc(Oc3ccc(NC(=S)NCCN(C)C)cc3)c2cc1OC [Example 529] ... 38
CCCCN(CCCC)CCNC(=O)Nc1ccc(Oc2ccnc3cc(OC)c(OC)cc23)cc1 [Example 682] ... 30
COc1cc2ncnc(Oc3ccc(NC(=O)OC4CCOCC4)cc3)c2cc1OC [Example 473] ... 30
COc1cc2nccc(Oc3ccc(NC(=O)NC4CCN(Cc5ccccc5)CC4)cc3Cl)c2cc1OC [Example 644] ... 17
COc1cc2nccc(Oc3cc(C)c(NC(=S)NCCN(C(C)C)C(C)C)cc3C)c2cc1OC [Example 555] ... 29
COc1cc2ncnc(Oc3ccc(NC(=O)OC4CCN(C)CC4)cc3)c2cc1OC [Example 469] ... 0

a = COc1cc2ncnc(Oc3ccc(OCC(=O)O)cc3)c2cc1OC [Example 775]
b = CCCCN(CCCC)C(C)CNC(=S)Nc1ccc(Oc2ncnc3cc(OC)c(OC)cc23)cc1 (centres unmarked) [Example 532]
Between item a and item b , which reported inhibition at 0.1 µM is smaller? Answer format: the label of the selected item.
a
(a: 22%, b: 44%)

a = CCN(CC)CCOc1ccc(Oc2ncnc3cc(OC)c(OC)cc23)cc1 [Example 807]
b = COc1cc2nccc(Oc3ccc(NC(=S)NC(=O)C(C)(C)Oc4ccc(Cl)cc4)cc3)c2cc1OC [Example 757]
Quick check, higher inhibition at 0.1 µM between a and b ? Answer format: the label of the selected item.
b

I = COc1cc2nccc(Oc3ccc(NC(=O)NC4CCN(Cc5ccc(C(C)(C)C)cc5)C4)cc3)c2cc1OC (centres unmarked) [Example 582]
II = CCCCN(CCCC)CCCNC(=S)Nc1cc(C)c(Oc2ccnc3cc(OC)c(OC)cc23)cc1C [Example 552]
Between item I and item II , which reported inhibition at 0.1 µM is smaller? Answer format: the label of the selected item.
II
(II: 10%, I: 20%)

I = COc1cc2nccc(Oc3ccc(NC(=S)NC(=O)C(C)(C)Oc4ccc(Cl)cc4)cc3Cl)c2cc1OC [Example 758]
II = COc1cc2nccc(Oc3cc(C)c(NC(=S)NC(=O)c4cc(C)oc4C)cc3C)c2cc1OC [Example 717]
III = COc1cc2nccc(Oc3ccc(NC(=O)NC4CCN(Cc5ccccc5C)CC4)cc3)c2cc1OC [Example 568]
IV = COc1cc2nccc(Oc3cc(C)c(NC(=O)OCN4C(=O)c5ccccc5C4=O)cc3C)c2cc1OC [Example 417]
Order the records, beginning with the lowest inhibition at 0.1 µM and ending with the highest. // ordering of labels required in reply
II, I, III, IV

P = CCCC(CCN1CCCCC1)OC(=O)Nc1ccc(Oc2ccnc3cc(OC)c(OC)cc23)c(C)c1C (centres unmarked) [Example 447]
Q = COc1cc2nccc(Oc3cc(C)c(NC(=O)NCCN4CCCCC4)cc3C)c2cc1OC [Example 674]
R = COc1cc2nccc(Oc3cc(C)c(NC(=O)OCCCN4CCCCC4)cc3C)c2cc1OC [Example 414]
S = COc1cc2ncnc(Oc3ccc(NC(=O)NC4CCN(Cc5ccc(C(C)(C)C)cc5)C4)cc3)c2cc1OC (centres unmarked) [Example 583]
Order the records, beginning with the lowest inhibition at 0.1 µM and ending with the highest. // ordering of labels required in reply
P, S, R, Q
(P: 11%, S: 17%, R: 27%, Q: 43%)
